Source listed as patent US20250134869A1.

# target.system: JAK3 enzyme (Homo sapiens (Human), UniProt P52333)
# Sequence (P52333 whole entry, species assumed): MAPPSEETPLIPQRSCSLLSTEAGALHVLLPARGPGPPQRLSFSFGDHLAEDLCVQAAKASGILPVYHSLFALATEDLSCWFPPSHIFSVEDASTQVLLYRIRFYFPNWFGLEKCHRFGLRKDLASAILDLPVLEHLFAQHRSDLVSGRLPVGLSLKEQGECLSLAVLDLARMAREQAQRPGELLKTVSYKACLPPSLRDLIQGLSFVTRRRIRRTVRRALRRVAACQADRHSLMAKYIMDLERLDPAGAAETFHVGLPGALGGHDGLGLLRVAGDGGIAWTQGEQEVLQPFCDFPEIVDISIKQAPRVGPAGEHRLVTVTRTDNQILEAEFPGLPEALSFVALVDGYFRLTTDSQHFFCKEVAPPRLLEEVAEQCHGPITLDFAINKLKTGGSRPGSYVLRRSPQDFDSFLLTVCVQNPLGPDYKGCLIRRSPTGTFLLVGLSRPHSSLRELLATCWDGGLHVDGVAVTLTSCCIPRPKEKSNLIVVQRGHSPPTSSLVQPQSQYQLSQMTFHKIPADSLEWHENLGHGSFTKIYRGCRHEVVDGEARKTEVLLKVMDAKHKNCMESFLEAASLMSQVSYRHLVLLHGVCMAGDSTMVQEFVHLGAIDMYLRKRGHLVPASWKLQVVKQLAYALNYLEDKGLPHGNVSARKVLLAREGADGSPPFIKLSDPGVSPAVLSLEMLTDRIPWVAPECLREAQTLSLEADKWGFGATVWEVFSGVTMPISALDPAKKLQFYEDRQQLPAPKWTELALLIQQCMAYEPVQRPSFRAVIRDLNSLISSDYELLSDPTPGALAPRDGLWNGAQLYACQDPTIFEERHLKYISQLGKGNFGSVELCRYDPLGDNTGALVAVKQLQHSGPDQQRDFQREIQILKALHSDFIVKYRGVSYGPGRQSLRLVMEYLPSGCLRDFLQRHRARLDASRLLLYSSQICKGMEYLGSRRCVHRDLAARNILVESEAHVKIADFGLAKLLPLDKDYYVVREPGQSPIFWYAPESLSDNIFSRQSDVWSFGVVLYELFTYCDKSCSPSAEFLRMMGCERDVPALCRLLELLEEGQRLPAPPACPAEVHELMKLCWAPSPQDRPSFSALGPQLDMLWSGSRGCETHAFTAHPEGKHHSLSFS
# measurement.notes: JAK Caliper Enzyme Assay at 4 μM or 1 mM ATP
# Type: biochemical
# experimental.parameters: read-out: JAK3 (4 μM ATP) IC50; 4 μM ATP
# Procedure: JAK Caliper Enzyme Assay at […] or 1 mM ATP Test article was solubilized in dimethyl sulfoxide (DMSO) to a stock concentration of 30 mM. An 11-point half log dilution series was created in DMSO with a top concentration of 600 μM. […] The compound plates were diluted 1 to 60 resulting in a top final assay compound concentration of 10 μM and a 2% DMSO concentration. Test article and assay controls were added to a 384-well plate. […]
quantity.measured: pIC50
Bear in mind: pIC50 is minus log10 of a mol/L concentration; give just that figure.

Q. Consider the compound "C=CC(=O)N1CCN(c2cnc3[nH]cc(C(=O)NC(C)C)c3n2)C[C@H]1C(C)C" and give its measured pIC50.
A. 8.72

Q. Next compound up: "C=CC(=O)N1CCC(Nc2cnc3[nH]cc(-c4cccnc4)c3n2)CC1"
A. 9.30

Q. Next compound up: "C=CC(=O)N1CC[C@@H](Nc2cnc3[nH]cc(C(=O)NC(C)C)c3n2)[C@H](OC)C1"
A. 9.10

Q. Next compound up: "C=CC(=O)N1CCN(c2cnc3[nH]cc(C(=O)NC(C)C)c3n2)[C@H](C)C1"
A. 8.96

Q. Next compound up: "C=CC(=O)N1CCC(Nc2cnc3[nH]cc(-c4cncc(F)c4)c3n2)CC1"
A. 9.52

Q. Next compound up: C=CC(=O)N1CC(O)C(Nc2cnc3[nH]cc(C(=O)NC(C)C)c3n2)C1 (centres unmarked)
A. 8.64

Q. Next compound up: "C=CC(=O)N1CCC(Nc2cnc3[nH]cc(C(=O)N[C@@H]4CCC[C@@H]4F)c3n2)CC1"
A. 9.70

Q. Next compound up: "C=CC(=O)N1CCC(Oc2cnc3[nH]cc(C(=O)NC(C)(C)C)c3n2)CC1"
A. 9.40

Q. Next compound up: "C=C(F)C(=O)N1CCC[C@@H](Nc2ncnc3[nH]ccc23)C1"
A. 7.25

Q. Next compound up: "C=CC(=O)N1CCC(C)(Nc2cnc3[nH]cc(C(=O)NC(C)C)c3n2)CC1"
A. 9.52
